The following compounds are listed with their measured melting point values.
Where a name gives a salt, the structure may show the parent alone.

Solved cases below.
| Compound | melting point |
| --- | --- |
| Cn1c2cc(Cl)ccc2c2c(C(=O)O)nc(-c3ccccc3)nc21 | 208 to 209 °C |
| CN(C)C(=O)c1nc(-c2ccccc2)nc2c1c1ccc(F)cc1n2C | 229 to 231 °C |
| CN(C)C(=O)c1nc(-c2ccccc2)nc2c1c1cc(Cl)ccc1n2C | 222 to 224 °C |
| CN(C)C(=O)c1nc(-c2cccnc2)nc2c1c1ccc(Cl)cc1n2C | 283 to 284 °C |
| CN(C)C(=O)c1nc(-c2cnc3c(c2)CCCC3)nc2c1c1ccc(Cl)cc1n2C.Cl | 289 to 291 °C |

Q) Return reported melting point. Input compound: COc1ccc(-c2nc(C(=O)N(C)C)c3c4ccc(Cl)cc4n(C)c3n2)cn1
A) 267 to 268 °C

Q) Return reported melting point. Input compound: Cn1c2cc(Cl)ccc2c2c(C(=O)N3CCCC3)nc(-c3ccncc3)nc21
A) 256 to 258 °C

Q) Return reported melting point. Input compound: CN(C)C(=O)c1nc(-c2cnccn2)nc2c1c1ccc(Cl)cc1n2C
A) 272 to 273 °C

Q) Return reported melting point. Input compound: CC(C)Cn1c2cc(Cl)ccc2c2c(C(=O)N(C)C)nc(-c3ccncc3)nc21 (as salt: HCl)
A) 230 to 236 °C

Q) Return reported melting point. Input compound: COCc1ccc(-c2nc(C(=O)N(C)C)c3c4ccc(Cl)cc4n(C)c3n2)cn1
A) 239 to 241 °C

Q) Return reported melting point. Input compound: CN(C)C(=O)c1nc(C2CC2)nc2c1c1ccc(Cl)cc1n2C
A) 197 to 198 °C

* * *

Structures can show the parent of a compound that is named as a salt.
The following molecules are listed with their measured melting point values.

Solved cases below.
| Molecule | Property name | Obs value |
| --- | --- | --- |
| CN(C)Cc1ccc(-c2nc(C(=O)N(C)C)c3c4ccc(Cl)cc4n(C)c3n2)cn1 (as salt: HCl) [Compound 47] | melting point | 240 to 242 °C |
| CCc1ccc(-c2nc(C(=O)N(C)C)c3c4ccc(Cl)cc4n(C)c3n2)cn1 [Compound 40] | melting point | 232 to 235 °C |
| CN(C)C(=O)c1nc(-c2ccccc2)nc2[nH]c3ccccc3c12 [Compound 23] | melting point | 218 to 219 °C |

Here is another molecule to look at.
Q) Return reported melting point. Input molecule: CC(C)c1nc(C(=O)N(C)C)c2c3ccc(Cl)cc3n(C)c2n1 [Compound 34]
A) 125 to 126 °C

* * *

The following molecules are listed with their measured melting point values.

Solved cases below.
| Molecule | melting point |
| --- | --- |
| CN(C)C(=O)c1nc(-c2ccc(Cl)nc2)nc2c1c1ccc(Cl)cc1n2C [Compound 37] | 275 to 276 °C |
| CN(C)C(=O)Cc1nc(-c2cccnc2)nc2c1c1ccc(Cl)cc1n2C [Compound 22] | 248 to 251 °C |
| CCc1cncc(-c2nc(C(=O)N(C)C)c3c4ccc(Cl)cc4n(C)c3n2)c1 [Compound 41] | 218 to 219 °C |
| COc1cncc(-c2nc(C(=O)N(C)C)c3c4ccc(Cl)cc4n(C)c3n2)c1 [Compound 44] | 258 to 260 °C |

Q) Return reported melting point. Input molecule: Cc1nc(-c2nc(C(=O)N(C)C)c3c4ccc(Cl)cc4n(C)c3n2)cs1 [Compound 46]
A) 256 to 258 °C

Q) Return reported melting point. Input molecule: Cc1nc(C(=O)N(C)C)c2c3ccc(Cl)cc3n(C)c2n1 [Compound 33]
A) 193 to 195 °C

Q) Return reported melting point. Input molecule: COc1cc(-c2nc(C(=O)N(C)C)c3c4ccc(Cl)cc4n(C)c3n2)ccn1 [Compound 30]
A) 278 to 279 °C

Q) Return reported melting point. Input molecule: Cc1cc(-c2nc(C(=O)N(C)C)c3c4ccc(Cl)cc4n(C)c3n2)cc(C)n1.Cl
A) 288 to 292 °C

Q) Return reported melting point. Input molecule: Cc1cc(-c2nc(C(=O)N(C)C)c3c4ccc(Cl)cc4n(C)c3n2)cnc1C.Cl
A) 285 to 289 °C

Q) Return reported melting point. Input molecule: CN(C)C(=O)c1nc(C2CCOCC2)nc2c1c1ccc(Cl)cc1n2C [Compound 35]
A) 174.5 to 175.5 °C

Q) Return reported melting point. Input molecule: CN(C)C(=O)c1nc(-c2ccccc2)nc2c1c1ccccc1n2C [Compound 1]
A) 193 to 195 °C

Q) Return reported melting point. Input molecule: CN(C)C(=O)c1nc(-c2cncnc2)nc2c1c1ccc(Cl)cc1n2C [Compound 43]
A) 322 to 325 °C

Q) Return reported melting point. Input molecule: CN(C)C(=O)c1nc(-c2ccccc2)nc2[nH]c3cc(Cl)ccc3c12 [Compound 5]
A) 232 to 233 °C

Q) Return reported melting point. Input molecule: CN1CCN(C(=O)c2nc(-c3ccccc3)nc3c2c2ccc(Cl)cc2n3C)CC1 [Compound 11]
A) 236 to 238 °C

Q) Return reported melting point. Input molecule: CCOC(=O)c1nc(-c2ccccc2)nc2c1c1ccc(Cl)cc1n2C [Compound 24]
A) 139 to 140 °C

* * *

The following molecules are listed with their measured melting point values.

Solved cases below.
| Smiles record | Property name | Obs value |
| --- | --- | --- |
| Cc1cncc(-c2nc(C(=O)N(C)C)c3c4ccc(Cl)cc4n(C)c3n2)c1 | melting point | 313 to 314 °C |
| CCOc1ccc(-c2nc(C(=O)N(C)C)c3c4ccc(Cl)cc4n(C)c3n2)cn1 | melting point | 237 to 239 °C |

Here is another molecule to look at.
Q) Return reported melting point. Input molecule: CN(C)C(=O)Cc1nc(-c2ccncc2)nc2c1c1ccc(Cl)cc1n2C
A) 231 to 232 °C
